Assay read-out IC50 on UniProtKB Q9UDY8; records merged from the literature.
Answer with a number only, understood to be in nM.

Give the reported IC50 for "O=C(Nc1cnc(-n2nccn2)c(Cl)c1)c1cnn(-c2ccc(F)cc2Br)c1C(F)(F)F" (system: UniProtKB Q9UDY8).
129

Given the entry "O=C(Nc1cnc(-n2nccn2)c(Cl)c1)c1cnn(-c2ccc3nccn3n2)c1C(F)(F)F" , what IC50 was observed with UniProtKB Q9UDY8?
437

Hi! What's the reported IC50 for "O=C(Nc1cc(Cl)c(-n2nccn2)cc1F)c1cnn(-c2cncc3c(F)cccc23)c1C(F)(F)F" on UniProtKB Q9UDY8?
54

Value wanted: IC50 (UniProtKB Q9UDY8) of entry COc1cncc(NC(=O)Nc2cc(C(F)(F)F)c(-n3nccn3)nc2OC)c1[C@H](C)OC (single isomer, unassigned)
40

Param readout= IC50; system= UniProtKB Q9UDY8; entry= "Cc1c(F)ccc(-n2ncc(C(=O)Nc3cnc(-n4nccn4)c(Cl)c3)c2C(F)(F)F)c1C" ; returns value.
891

Observed IC50 on UniProtKB Q9UDY8 for COC(C)c1c(NC(=O)Nc2cnc(-n3nccn3)c(Cl)c2)cncc1C1CC1 (racemic) , please.
600

Give IC50 (UniProtKB Q9UDY8) of the following molecule: "N#Cc1cnn(-c2ncc(NC(=O)c3cnn(-c4cccc5ncccc45)c3C(F)(F)F)cc2Cl)n1"
42

Lab request: please report IC50 under test system UniProtKB Q9UDY8 for "NC(=O)c1cnn(-c2ncc(NC(=O)c3cnn(-c4cccc5ncccc45)c3C(F)(F)F)cc2Cl)n1"
28

Observed IC50 on UniProtKB Q9UDY8 for "Cc1ncccc1-n1ncc(C(=O)Nc2cnc(-n3nccn3)c(C#N)c2)c1C(F)(F)F" , please.
794

Hello, I am looking for reported IC50 with UniProtKB Q9UDY8 for "O=C(Nc1cnc(-n2nccn2)c(Cl)c1)c1cnn(-c2cnc(C3CNC3)c3ccccc23)c1C(F)(F)F" . Could you help?
871

// map CNc1ncc(NC(=O)Nc2cnc(-n3nccn3)c(Cl)c2)c([C@@H](C)OC)c1Br (single isomer, unassigned) to recorded IC50 (system: UniProtKB Q9UDY8)
2690

Given the entry "N#Cc1cc(NC(=O)c2cnn(-c3cccc(N)n3)c2C(F)(F)F)cnc1-n1nccn1" , what IC50 was observed with UniProtKB Q9UDY8?
263

Can you look up IC50 on UniProtKB Q9UDY8 for "Nc1cnn(-c2ncc(NC(=O)c3cnn(-c4cccc5ncccc45)c3C(F)(F)F)cc2Cl)n1" ?
19

====

Record: compiled IC50 on MALT1 (Homo sapiens, UniProt Q9UDY8) from multiple reports.
Sequence (Q9UDY8 whole entry): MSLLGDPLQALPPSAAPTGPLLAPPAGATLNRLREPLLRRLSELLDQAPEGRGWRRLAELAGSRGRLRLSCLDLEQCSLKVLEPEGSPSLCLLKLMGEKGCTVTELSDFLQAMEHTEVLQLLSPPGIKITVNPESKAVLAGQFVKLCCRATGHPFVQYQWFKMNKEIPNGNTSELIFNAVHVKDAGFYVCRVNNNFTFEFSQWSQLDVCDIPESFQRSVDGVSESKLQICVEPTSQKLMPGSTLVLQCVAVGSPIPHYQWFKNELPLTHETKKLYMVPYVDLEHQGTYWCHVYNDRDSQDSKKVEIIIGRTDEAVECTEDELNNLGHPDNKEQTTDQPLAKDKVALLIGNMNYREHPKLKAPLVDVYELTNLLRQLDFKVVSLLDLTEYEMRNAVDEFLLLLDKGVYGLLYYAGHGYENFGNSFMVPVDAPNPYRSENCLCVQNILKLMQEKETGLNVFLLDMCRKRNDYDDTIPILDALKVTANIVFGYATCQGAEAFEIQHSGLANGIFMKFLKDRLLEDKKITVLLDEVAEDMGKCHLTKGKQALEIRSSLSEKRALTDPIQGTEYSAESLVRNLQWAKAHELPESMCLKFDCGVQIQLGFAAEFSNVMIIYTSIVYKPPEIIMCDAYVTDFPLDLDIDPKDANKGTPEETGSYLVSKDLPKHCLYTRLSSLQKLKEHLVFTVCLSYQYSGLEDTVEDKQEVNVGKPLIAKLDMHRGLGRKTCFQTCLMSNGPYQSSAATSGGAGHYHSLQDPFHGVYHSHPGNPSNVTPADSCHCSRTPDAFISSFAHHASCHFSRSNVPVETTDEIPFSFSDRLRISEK

# query: IC50 of entry "Cn1nc(Oc2ccccc2)c(C(F)(F)F)c1C(=O)Nc1ccnc(C(F)(F)F)c1"
0.5 to 2.5 µM

// returns reported IC50 for input "Cn1nc(-c2cccc3ccoc23)c(C(F)(F)F)c1C(=O)Nc1cnc(-n2nccn2)c(Cl)c1"
< 0.5 µM

Form field: reported IC50 of "Cn1nc(-c2cc(OC3COC3)ccc2Cl)c(C(F)(F)F)c1C(=O)Nc1ccnc(C(F)(F)F)c1"
0.5 to 2.5 µM

So what's the measured IC50 for this one? "Cc1cncc(-c2nn(C)c(C(=O)Nc3ccnc(C(F)(F)F)c3)c2C(F)(F)F)c1"
> 10 µM

Reported IC50, compound "Cc1nc2c(C3CC3)c(NC(=O)Nc3ccc(-n4ncnc4C)c(C#N)c3)cnc2s1" : ____
0.051 to 0.1 µM

Given the entry "N#Cc1cc(NC(=O)c2snc(-c3ccccc3)c2C2CC2)ccc1C(=O)N1CC(O)C1" , report its measured IC50.
≤ 0.4 µM

// IC50 lookup, key: "O=C(Nc1ccnc(C(F)(F)F)c1)c1snc(-c2ccccc2)c1C1CC1"
≤ 0.4 µM

Reported IC50 for "CC(=O)N1CCC(C(=O)N(C)[C@@H](c2ccc(Nc3cnn(-c4ccccc4)c3C(C)C)cc2)C(F)(F)F)CC1" : what is it?
0.1 to 1 µM

====

IC50 for MALT1 (Homo sapiens, UniProt Q9UDY8), merged from several publications.

Field: IC50 (MALT1 (Homo sapiens, UniProt Q9UDY8)). Entry: "CO[C@@H](C)c1c(Nc2ccc([C@H](N(C)C(=O)C3CCSCC3)C(F)(F)F)cc2)cnc2nc(Cl)nn12"
< 100 nM

# get_value(readout= IC50, system= MALT1 (Homo sapiens, UniProt Q9UDY8)) for "Cc1nc2c(N3CCCCC3)c(NC(=O)Nc3cnc(-n4nccn4)c(Cl)c3)cnc2s1"
1 to 50 nM

Value wanted: IC50 (MALT1 (Homo sapiens, UniProt Q9UDY8)) of entry "Cn1nc(-c2cccc3nccn23)c(C(F)(F)F)c1C(=O)Nc1ccc(C(=O)N2CC(O)C2)c(Cl)c1"
2500 to 10000 nM

Hi! What's the reported IC50 for "Cc1ccccc1-c1nsc(C(=O)Nc2ccnc(C(F)(F)F)c2)c1C1CC1" on MALT1 (Homo sapiens, UniProt Q9UDY8)?
≤ 400 nM

====

// compounds with reported pIC50 on MALT1 (Homo sapiens, UniProt Q9UDY8), multi-publication
pIC50: −log10 of the molar value.

Form field: pIC50 recorded for "CO[C@@H](C)c1c(Nc2ccc([C@H](N(C)C(=O)C3CN(C(C)=O)C3)C(F)(F)F)cc2)cnc2nc(Cl)nn12" with MALT1 (Homo sapiens, UniProt Q9UDY8) (enter value)
6.00 to 7.00

Which pIC50 is reported with MALT1 (Homo sapiens, UniProt Q9UDY8) for this entry: "CC(=O)N1CC(C(=O)N(C)[C@@H](c2ccc(Nc3cnn(-c4cccc(C#N)c4)c3C(F)(F)F)cc2)C(F)(F)F)C1" ?
6.00 to 7.00

Give MALT1 (Homo sapiens, UniProt Q9UDY8) pIC50 for "CCc1nc2c(C3CC3)c(NC(=O)Nc3cnc(-n4nccn4)c(Cl)c3)cnc2s1"
7.30 to 9.00

Find pIC50 (MALT1 (Homo sapiens, UniProt Q9UDY8)) for the entry "Cn1nc(-c2cccc3ncsc23)c(C(F)(F)F)c1C(=O)Nc1cnc(-n2nccn2)c(Cl)c1"
> 6.30

Recall the recorded pIC50 for "N#Cc1cc(NC(=O)c2snc(-c3cccc4ncccc34)c2C2CC2)ccc1C(=O)N1CC(O)C1" with MALT1 (Homo sapiens, UniProt Q9UDY8) and state it.
≥ 6.40

Observed pIC50 on MALT1 (Homo sapiens, UniProt Q9UDY8) for "CO[C@@H](C)c1c(Nc2ccc([C@H](N(C)C(=O)C3CCN(C)CC3)C(F)(F)F)cc2)cnc2nc(Cl)nn12" , please.
6.00 to 7.00

Provide the documented pIC50 with MALT1 (Homo sapiens, UniProt Q9UDY8) as the system for "Cn1nc(-c2cccc3c2OCCCO3)c(C(F)(F)F)c1C(=O)Nc1ccnc(C(F)(F)F)c1"
5.00 to 5.60

# get_value(readout= pIC50, system= MALT1 (Homo sapiens, UniProt Q9UDY8)) for "Cn1ccc(-c2nsc(C(=O)Nc3ccnc(C(F)(F)F)c3)c2C2CC2)n1"
5.60 to 6.00

Param readout = pIC50; param system = MALT1 (Homo sapiens, UniProt Q9UDY8); param query = "Cc1nc2c(C(C)C)c(NC(=O)Nc3cnc(-n4nccn4)c(C(F)(F)F)c3)cnc2s1" ; response: value
7.30 to 9.00

Fill in the recorded pIC50 for this compound, with MALT1 (Homo sapiens, UniProt Q9UDY8) as test system: "CNc1nc2cccc(-c3nn(C)c(C(=O)Nc4ccnc(C(F)(F)F)c4)c3C(F)(F)F)c2s1"
5.00 to 5.60

Requested read-out pIC50, target or system MALT1 (Homo sapiens, UniProt Q9UDY8), entry "O=C(Nc1ccnc(C(F)(F)F)c1)c1snc(-c2ccc(Cl)cc2)c1C1CC1"
≥ 6.40

Under MALT1 (Homo sapiens, UniProt Q9UDY8): pIC50 value of "Cc1ccccc1-n1ncc(C(=O)Nc2cnc(-n3nccn3)c(Cl)c2)c1C(F)(F)F" ?
6.82

Please state recorded pIC50 (tested on MALT1 (Homo sapiens, UniProt Q9UDY8)) of "Cn1nc(-c2ccccc2)c(C(F)(F)F)c1C(=O)Nc1cc(C(F)(F)F)ccn1"
5.60 to 6.30

# value lookup — system MALT1 (Homo sapiens, UniProt Q9UDY8), readout pIC50, item "COc1c(-c2nn(C)c(C(=O)Nc3ccnc(C(F)(F)F)c3)c2C(F)(F)F)ccnc1N"
5.00 to 5.60

Recall the recorded pIC50 for "Cc1cncc(-c2nsc(C(=O)Nc3ccnc(C(F)(F)F)c3)c2C2CC2)c1" with MALT1 (Homo sapiens, UniProt Q9UDY8) and state it.
6.00 to 6.40

API: value(readout= pIC50, system= MALT1 (Homo sapiens, UniProt Q9UDY8), query= "O=C(Nc1cnc(-n2nccn2)c(Cl)c1)c1cnn(-c2nsc3ccccc23)c1C(F)(F)F" )
7.09

Recall the recorded pIC50 for "Nc1nccc(-c2ccc(NC(=O)c3cnn(-c4cncc5ccccc45)c3C(F)(F)F)cc2Cl)n1" with MALT1 (Homo sapiens, UniProt Q9UDY8) and state it.
6.85
